Molecular target: cathepsin K (Homo sapiens, UniProt P43235)
Construct: made in house
Sequence (P43235 115-329): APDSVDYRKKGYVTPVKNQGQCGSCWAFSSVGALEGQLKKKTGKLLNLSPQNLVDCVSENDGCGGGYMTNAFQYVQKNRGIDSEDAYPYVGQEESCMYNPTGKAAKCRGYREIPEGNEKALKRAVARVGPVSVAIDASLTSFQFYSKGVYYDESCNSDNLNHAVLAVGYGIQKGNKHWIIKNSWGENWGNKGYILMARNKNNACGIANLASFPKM
Test: Kinetic parameters of ACC substrates with cathepsin K
Format: biochemical
Settings: Fig. 5B; pH 5.5, 37 °C; cathepsin K 5–20 nM; triplicate, SD below 15%
Procedure: All kinetic experiments were performed using fMax (Molecular Devices) and CLARIOStar (BMG LABTECH) spectrofluorimeters operating in kinetic mode using 96-well plates. ACC-labeled substrates were screened using 355 nm and 460 nm wavelengths (excitation and emission, respectively). […] Classic substrate velocity plots were analyzed according to Michaelis–Menten kinetics and a detailed protocol for the determination of kinetic parameters for ACC-tagged substrates is found elsewhere.[56] […]
Non-standard residues stand in square brackets, D forms with d. *: point of attachment. Phe(F5) = N[C@@H](Cc1c(F)c(F)c(F)c(F)c1F)C(=O)O; ACC = NC(=O)Cc1cc(=O)oc2cc(N*)ccc12; ClZ = O=C(OCc1ccccc1Cl)*
reported_property: kcat/KM Cath-K (M⁻¹ s⁻¹)
Numbers only, in M⁻¹ s⁻¹.

In: Identify kcat/KM Cath-K associated with the substance Ac-H[dV][Phe(F5)]K(ClZ)-{ACC} (SMILES CC(=O)N[C@@H](Cc1c[nH]cn1)C(=O)N[C@@H](C(=O)N[C@@H](Cc1c(F)c(F)c(F)c(F)c1F)C(=O)N[C@@H](CCCCNC(=O)OCc1ccccc1Cl)C(=O)Nc1ccc2c(CC(N)=O)cc(=O)oc2c1)C(C)C)
Out: 361
